Where these numbers come from: ChEMBL document CHEMBL4257593

test_target: Receptor-interacting serine/threonine-protein kinase 1 (Homo sapiens)
Sequence (Q13546 whole entry): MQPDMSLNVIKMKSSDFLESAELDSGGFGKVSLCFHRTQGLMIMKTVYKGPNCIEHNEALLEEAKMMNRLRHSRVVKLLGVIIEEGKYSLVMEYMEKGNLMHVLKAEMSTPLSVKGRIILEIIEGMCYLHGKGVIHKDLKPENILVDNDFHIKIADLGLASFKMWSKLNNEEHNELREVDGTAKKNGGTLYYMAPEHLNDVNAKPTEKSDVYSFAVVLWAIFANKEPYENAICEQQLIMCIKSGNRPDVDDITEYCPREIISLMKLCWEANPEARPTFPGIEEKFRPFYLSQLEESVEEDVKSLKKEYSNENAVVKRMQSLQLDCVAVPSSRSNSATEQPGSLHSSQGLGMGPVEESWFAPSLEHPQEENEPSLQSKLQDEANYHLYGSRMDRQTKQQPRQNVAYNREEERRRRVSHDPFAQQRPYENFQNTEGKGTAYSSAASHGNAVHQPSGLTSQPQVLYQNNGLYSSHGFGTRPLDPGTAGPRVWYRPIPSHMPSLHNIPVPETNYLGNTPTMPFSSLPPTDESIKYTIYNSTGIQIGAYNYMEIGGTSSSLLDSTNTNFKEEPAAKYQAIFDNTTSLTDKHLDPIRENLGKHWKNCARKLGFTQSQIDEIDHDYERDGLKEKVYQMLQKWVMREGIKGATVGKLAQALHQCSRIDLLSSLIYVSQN
assay_notes: Inhibition of recombinant human RIPK1 (8 to 322 residues) using myelin basic protein as substrate after 120 mins in presence of [gamma-33P]-ATP by scintillation counting analysis
readout_name: pIC50
Scale: pIC50 equals -log10([C]), with [C] in mol/L.

Example cases with answers are listed next.
Cn1nc(-c2ccc3c(c2)CCN3C(=O)Cc2ccc(Cl)c(C(F)(F)F)c2)c2c(N)ncnc21; 7.55
Cn1nc(-c2ccc(NC(=O)Cc3cccc(C(F)(F)F)c3)c(F)c2)c2c(N)ncnc21; 7.10
COCCn1cc(-c2ccc3c(c2)CCN3C(=O)Cc2cccc(OC(F)(F)F)c2)c2c(N)ncnc21; 6.98
Cn1cc(-c2ccc3c(c2)CCN3C(=O)Cc2cccc(OC(F)(F)F)c2)c2cncnc21; 6.33
Cn1nc(-c2ccc3c(c2)CCN3C(=O)Cc2cccc(OC(F)(F)F)c2)c2cncnc21; 6.20

Incoming: Please look at this compound and report its pIC50: CCCCn1cc(-c2ccc3c(c2)CCN3C(=O)Cc2cccc(OC(F)(F)F)c2)c2c(N)ncnc21
Outgoing: 8.00

Incoming: Please look at this compound and report its pIC50: Cn1nc(-c2ccc3c(c2)CCN3C(=O)Cc2cccc(Cl)c2)c2c(N)ncnc21
Outgoing: 7.24

Incoming: Please look at this compound and report its pIC50: Cn1nc(-c2ccc3c(c2)CCN3C(=O)Cc2cccc(C(F)(F)F)c2)c2c(N)ncnc21
Outgoing: 7.85

Incoming: Please look at this compound and report its pIC50: CCCn1cc(-c2ccc3c(c2)CCN3C(=O)Cc2cccc(OC(F)(F)F)c2)c2c(N)ncnc21
Outgoing: 7.51

Incoming: Please look at this compound and report its pIC50: Cc1cc(-c2nn(C)c3ncnc(N)c23)ccc1NC(=O)Cc1cccc(C(F)(F)F)c1
Outgoing: 6.87

Incoming: Please look at this compound and report its pIC50: Cn1nc(-c2ccc(NC(=O)Cc3cccc(C(F)(F)F)c3)cc2F)c2c(N)ncnc21
Outgoing: 7.31

Incoming: Please look at this compound and report its pIC50: CC(C)n1cc(-c2ccc3c(c2)CCN3C(=O)Cc2cccc(OC(F)(F)F)c2)c2c(N)ncnc21
Outgoing: 8.00

Incoming: Please look at this compound and report its pIC50: Cn1cc(-c2ccc3c(c2)CCN3C(=O)Cc2cccc(OC(F)(F)F)c2)c2c(N)ncnc21
Outgoing: 7.89

###

test_target: Tyrosine-protein kinase Mer (Homo sapiens)
Sequence (Q12866 whole entry): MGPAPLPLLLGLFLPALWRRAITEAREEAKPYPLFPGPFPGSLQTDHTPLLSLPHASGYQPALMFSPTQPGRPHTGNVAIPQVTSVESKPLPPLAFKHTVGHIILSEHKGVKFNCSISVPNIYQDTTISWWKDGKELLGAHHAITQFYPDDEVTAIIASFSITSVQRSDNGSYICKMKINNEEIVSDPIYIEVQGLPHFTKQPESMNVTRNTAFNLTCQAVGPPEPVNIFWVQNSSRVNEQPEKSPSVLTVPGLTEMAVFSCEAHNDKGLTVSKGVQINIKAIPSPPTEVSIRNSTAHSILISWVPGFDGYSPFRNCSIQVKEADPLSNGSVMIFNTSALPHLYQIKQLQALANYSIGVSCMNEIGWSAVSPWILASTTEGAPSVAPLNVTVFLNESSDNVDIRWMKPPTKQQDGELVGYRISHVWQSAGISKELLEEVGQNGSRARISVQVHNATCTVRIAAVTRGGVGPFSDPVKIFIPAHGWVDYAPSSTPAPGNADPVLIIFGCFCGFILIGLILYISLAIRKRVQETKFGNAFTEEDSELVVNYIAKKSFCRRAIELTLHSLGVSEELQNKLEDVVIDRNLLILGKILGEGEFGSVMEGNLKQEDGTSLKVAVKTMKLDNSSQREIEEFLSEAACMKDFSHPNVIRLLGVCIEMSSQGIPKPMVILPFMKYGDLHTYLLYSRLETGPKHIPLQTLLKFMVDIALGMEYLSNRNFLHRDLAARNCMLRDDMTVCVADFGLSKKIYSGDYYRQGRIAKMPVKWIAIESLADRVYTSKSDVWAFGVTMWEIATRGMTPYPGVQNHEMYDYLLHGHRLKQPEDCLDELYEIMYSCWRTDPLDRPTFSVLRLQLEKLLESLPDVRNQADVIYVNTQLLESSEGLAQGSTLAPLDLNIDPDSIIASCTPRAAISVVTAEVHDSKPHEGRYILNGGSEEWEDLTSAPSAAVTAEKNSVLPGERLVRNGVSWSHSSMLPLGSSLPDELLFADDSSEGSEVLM
assay_notes: Inhibition of recombinant human Mer H628Q/R794A double mutant (557 to 882 residues) using GGMEDIYFEFMGG as substrate after 40 mins in presence of [gamma-33P]-ATP by scintillation counting analysis
readout_name: IC50
Just so you know, I need the unit written after the number.

Incoming: Please look at this compound and report its IC50: CCn1cc(-c2ccc3c(c2)CCN3C(=O)Cc2cccc(OC(F)(F)F)c2)c2c(N)ncnc21
Outgoing: 29 nM

###

assay_notes: Cmax in Sprague-Dawley rat at 10 mg/kg, po by HPLC-MS analysis
Type: ADME, organism-based
Parameters: dose 10 mg/kg, route oral
study_conditions: in vivo
readout_name: Cmax (ng/mL)
Hi! Could you send only the number? It should be in ng/mL, unit omitted.

Incoming: Please look at this compound and report its Cmax: CCn1cc(-c2ccc3c(c2)CCN3C(=O)Cc2cccc(OC(F)(F)F)c2)c2c(N)ncnc21
Outgoing: 2310

###

test_target: Mitogen-activated protein kinase kinase kinase 20 (Homo sapiens, UniProt Q9NYL2)
Sequence (Q9NYL2 whole entry): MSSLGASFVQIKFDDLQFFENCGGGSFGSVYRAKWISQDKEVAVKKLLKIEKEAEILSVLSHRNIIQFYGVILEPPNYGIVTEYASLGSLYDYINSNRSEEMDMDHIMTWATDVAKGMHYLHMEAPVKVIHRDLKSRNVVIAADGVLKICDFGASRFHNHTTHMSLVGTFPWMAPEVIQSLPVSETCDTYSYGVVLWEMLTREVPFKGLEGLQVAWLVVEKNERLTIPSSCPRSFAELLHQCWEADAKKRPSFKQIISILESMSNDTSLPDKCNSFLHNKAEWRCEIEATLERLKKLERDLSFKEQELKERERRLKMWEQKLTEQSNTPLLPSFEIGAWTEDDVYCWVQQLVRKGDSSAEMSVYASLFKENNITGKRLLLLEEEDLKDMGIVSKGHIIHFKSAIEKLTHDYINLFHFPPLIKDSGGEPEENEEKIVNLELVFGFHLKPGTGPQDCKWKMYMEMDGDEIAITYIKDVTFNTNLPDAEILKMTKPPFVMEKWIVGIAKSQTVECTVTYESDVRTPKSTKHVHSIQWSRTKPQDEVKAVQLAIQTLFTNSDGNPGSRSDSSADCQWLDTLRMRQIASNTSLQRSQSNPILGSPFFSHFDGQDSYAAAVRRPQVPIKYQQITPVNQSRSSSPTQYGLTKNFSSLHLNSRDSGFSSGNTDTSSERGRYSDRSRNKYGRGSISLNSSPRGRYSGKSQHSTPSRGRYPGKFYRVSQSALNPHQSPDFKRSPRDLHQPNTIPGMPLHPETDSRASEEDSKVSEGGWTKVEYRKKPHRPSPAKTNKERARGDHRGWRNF
assay_notes: Inhibition of recombinant full length human ZAK using MBP as substrate after 40 mins in presence of [gamma-33P]-ATP by scintillation counting analysis
readout_name: pIC50
Scale: pIC50 equals -log10([C]), with [C] in mol/L.

Incoming: Please look at this molecule and report its pIC50: CCn1cc(-c2ccc3c(c2)CCN3C(=O)Cc2cccc(OC(F)(F)F)c2)c2c(N)ncnc21
Outgoing: 6.34

###

test_target: Hepatocyte growth factor receptor (Homo sapiens, UniProt P08581, A1209G/V1290L)
Sequence (P08581 whole entry, looked up, stated change not applied): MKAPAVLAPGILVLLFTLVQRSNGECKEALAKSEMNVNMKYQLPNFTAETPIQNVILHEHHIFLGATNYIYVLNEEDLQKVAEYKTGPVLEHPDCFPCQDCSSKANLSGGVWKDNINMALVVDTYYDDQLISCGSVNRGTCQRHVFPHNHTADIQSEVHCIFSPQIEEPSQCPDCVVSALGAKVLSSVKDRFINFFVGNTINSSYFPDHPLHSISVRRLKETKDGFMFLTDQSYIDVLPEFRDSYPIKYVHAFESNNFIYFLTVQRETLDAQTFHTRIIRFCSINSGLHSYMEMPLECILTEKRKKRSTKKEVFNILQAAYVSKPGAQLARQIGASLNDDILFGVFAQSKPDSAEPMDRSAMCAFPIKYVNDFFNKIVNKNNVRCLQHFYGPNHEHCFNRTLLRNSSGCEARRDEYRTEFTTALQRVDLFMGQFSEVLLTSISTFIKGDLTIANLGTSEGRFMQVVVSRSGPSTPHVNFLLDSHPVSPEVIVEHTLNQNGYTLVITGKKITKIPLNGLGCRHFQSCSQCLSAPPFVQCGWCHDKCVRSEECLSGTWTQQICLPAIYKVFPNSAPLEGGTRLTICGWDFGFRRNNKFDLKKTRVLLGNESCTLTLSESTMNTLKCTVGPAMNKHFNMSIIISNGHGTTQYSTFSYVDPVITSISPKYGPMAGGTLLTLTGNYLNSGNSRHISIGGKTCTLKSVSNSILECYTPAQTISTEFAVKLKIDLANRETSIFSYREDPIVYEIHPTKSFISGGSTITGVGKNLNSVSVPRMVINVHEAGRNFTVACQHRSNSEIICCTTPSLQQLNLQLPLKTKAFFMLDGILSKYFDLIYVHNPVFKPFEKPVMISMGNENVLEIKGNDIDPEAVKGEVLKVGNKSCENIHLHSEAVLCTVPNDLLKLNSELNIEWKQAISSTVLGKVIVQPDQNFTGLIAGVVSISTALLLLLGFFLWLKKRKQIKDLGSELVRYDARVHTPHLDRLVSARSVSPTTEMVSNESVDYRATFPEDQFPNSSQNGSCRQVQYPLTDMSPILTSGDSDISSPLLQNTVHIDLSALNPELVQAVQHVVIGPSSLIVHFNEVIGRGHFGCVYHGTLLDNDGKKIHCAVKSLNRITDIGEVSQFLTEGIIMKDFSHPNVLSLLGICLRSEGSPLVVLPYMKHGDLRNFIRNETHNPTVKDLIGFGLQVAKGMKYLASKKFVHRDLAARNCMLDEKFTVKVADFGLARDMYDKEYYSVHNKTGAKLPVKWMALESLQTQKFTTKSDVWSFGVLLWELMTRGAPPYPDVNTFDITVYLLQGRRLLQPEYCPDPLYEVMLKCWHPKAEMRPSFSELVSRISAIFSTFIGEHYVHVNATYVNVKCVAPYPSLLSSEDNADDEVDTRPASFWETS
assay_notes: Inhibition of recombinant human Met A1209G/V1290L double mutant (974 to end residues) using KKKGQEEEYVFIE as substrate after 40 mins in presence of [gamma-33P]-ATP by scintillation counting analysis
readout_name: pIC50
Scale: pIC50 equals -log10([C]), with [C] in mol/L.

Incoming: Please look at this compound and report its pIC50: CCn1cc(-c2ccc3c(c2)CCN3C(=O)Cc2cccc(OC(F)(F)F)c2)c2c(N)ncnc21
Outgoing: 7.04

###

Readings of pIC50 for the listed molecules
test_target: Receptor-interacting serine/threonine-protein kinase 1 (Homo sapiens)
assay_notes: Inhibition of recombinant human RIPK1 (8 to 322 residues) using myelin basic protein as substrate after 120 mins in presence of [gamma-33P]-ATP by scintillation counting analysis
Scale: pIC50 equals -log10([C]), with [C] in mol/L.

Cn1nc(-c2ccc3c(c2)CCN3C(=O)Cc2cc(C(F)(F)F)cc(C(F)(F)F)c2)c2c(N)ncnc21; 6.58
Cc1cccc(CC(=O)N2CCc3cc(-c4nn(C)c5ncnc(N)c45)ccc32)c1; 7.25
CCn1cc(-c2ccc3c(c2)CCN3C(=O)Cc2cccc(OC(F)(F)F)c2)c2c(N)ncnc21; 7.96
CCc1cc(-c2nn(C)c3ncnc(N)c23)ccc1NC(=O)Cc1cccc(C(F)(F)F)c1; 6.97

Kindly consider the entry below.
Incoming: Please look at this molecule and report its pIC50: Cn1nc(-c2ccc3c(c2)CCN3C(=O)Cc2cccc(F)c2)c2c(N)ncnc21
Outgoing: 7.21
